# System: CAL-85-1
# Experiment Description: normalised response (% of control), CellTiter-Glo; higher = more viable cells (100 = DMSO, 0 = benzethonium chloride kill control)
# Experimental Setup: incubation time: 72 h
Measured Parameter: normalised response

Asked: Tell me measured normalised response for CC(C)C[C@H](NC(=O)[C@H](CCc1ccccc1)NC(=O)CN1CCOCC1)C(=O)N[C@@H](Cc1ccccc1)C(=O)N[C@@H](CC(C)C)C(=O)[C@@]1(C)CO1 [Carfilzomib] (100 nM) please.
Given back: 0.78%

Asked: Tell me measured normalised response for CCCCCOC(=O)Nc1nc(=O)n([C@@H]2O[C@H](C)[C@@H](O)[C@H]2O)cc1F [Capecitabine] (1000 nM) please.
Given back: 92.2%

Asked: Tell me measured normalised response for Cc1c(N)nc([C@H](CC(N)=O)NC[C@H](N)C(N)=O)nc1C(=O)N[C@H](C(=O)N[C@H](C)[C@@H](O)[C@H](C)C(=O)N[C@H](C(=O)NCCc1nc(-c2nc(C(=O)NCCC[S+](C)C)cs2)cs1)[C@@H](C)O)[C@@H](OC1OC(CO)C(O)C(O)C1OC1OC(CO)C(O)C(OC(N)=O)C1O)c1cnc[nH]1 (some centres not stated) [Bleomycin] (1000 nM) please.
Given back: 91.9%

Asked: Tell me measured normalised response for Cn1cc(C[C@@H](N)C(=O)O)c2ccccc21 [1-methyl-D-tryptophan] (0.5 nM) please.
Given back: 94.3%

Asked: Tell me measured normalised response for CC(C)C(=O)Nc1ccc([N+](=O)[O-])c(C(F)(F)F)c1 [Flutamide] (1 nM) please.
Given back: 96.7%

Asked: Tell me measured normalised response for CN1CCN(c2nc(C3=C(c4c[nH]c5ccccc45)C(=O)NC3=O)c3ccccc3n2)CC1 [Sotrastaurin] (10 nM) please.
Given back: 95.8%

Asked: Tell me measured normalised response for Cc1cc2c(F)c(Oc3ncnn4cc(OC[C@@H](C)O)c(C)c34)ccc2[nH]1 [Brivanib] (1 nM) please.
Given back: 102%

Asked: Tell me measured normalised response for Cn1cc(C[C@@H](N)C(=O)O)c2ccccc21 [1-methyl-D-tryptophan] (5 nM) please.
Given back: 91.3%

Asked: Tell me measured normalised response for C[C@]12C=CC(=O)C=C1CC[C@@H]1[C@@H]2C(=O)C[C@@]2(C)[C@H]1CC[C@]2(O)C(=O)CO [Prednisone] (1000 nM) please.
Given back: 92.9%

Asked: Tell me measured normalised response for CO[C@H]1C[C@@H]2CC[C@@H](C)[C@@](O)(O2)C(=O)C(=O)N2CCCC[C@H]2C(=O)O[C@H]([C@H](C)C[C@@H]2CC[C@@H](O)[C@H](OC)C2)CC(=O)[C@H](C)/C=C(\C)[C@@H](O)[C@@H](OC)C(=O)[C@H](C)C[C@H](C)/C=C/C=C/C=C/1C [Sirolimus] (0.1 nM) please.
Given back: 96.1%

Asked: Tell me measured normalised response for O=C(O)CC[C@H]1CC[C@@](c2cc(F)ccc2F)(S(=O)(=O)c2ccc(Cl)cc2)CC1 [MK-0752] (0.1 nM) please.
Given back: 99.5%

Asked: Tell me measured normalised response for CN1CCc2c(c3ccccc3n2Cc2ccc(C(=O)NO)cc2)C1 [Tubastatin A] (10 nM) please.
Given back: 107%

Asked: Tell me measured normalised response for COc1cc2c(Oc3ccc(NC(=O)C4(C(=O)Nc5ccc(F)cc5)CC4)cc3F)ccnc2cc1OCCCN1CCOCC1 [Foretinib] (100 nM) please.
Given back: 98%

Asked: Tell me measured normalised response for CCCCCOC(=O)Nc1nc(=O)n([C@@H]2O[C@H](C)[C@@H](O)[C@H]2O)cc1F [Capecitabine] (10 nM) please.
Given back: 97.4%

Asked: Tell me measured normalised response for CO[C@H](C(=O)[C@@H](O)[C@@H](C)O)[C@@H]1Cc2cc3cc(O[C@H]4C[C@@H](O[C@@H]5C[C@@H](O)[C@H](O)[C@@H](C)O5)[C@H](O)[C@@H](C)O4)c(C)c(O)c3c(O)c2C(=O)[C@H]1O[C@H]1C[C@@H](O[C@@H]2C[C@@H](O)[C@@H](O[C@@H]3C[C@](C)(O)[C@H](O)[C@@H](C)O3)[C@@H](C)O2)[C@H](O)[C@@H](C)O1 [Plicamycin] (1 nM) please.
Given back: 102%

Asked: Tell me measured normalised response for CC[C@H](CC#N)OC(=O)N[C@@H](C)c1cccc(NC(=O)Nc2ccc(-c3cnco3)c(OC)c2)c1 [AVN944] (10 nM) please.
Given back: 95.8%

Asked: Tell me measured normalised response for CC(C)NC[C@@H](C(=O)N1CCN(c2ncnc3c2[C@H](C)C[C@H]3O)CC1)c1ccc(Cl)cc1 [GDC-0068] (1 nM) please.
Given back: 98.9%

Asked: Tell me measured normalised response for NC1(c2ccc(-c3nc4ccn5c(=O)[nH]nc5c4cc3-c3ccccc3)cc2)CCC1 [MK-2206] (100 nM) please.
Given back: 109%

Asked: Tell me measured normalised response for COc1cc(Nc2ncc(F)c(Nc3ccc4c(n3)N(COP(=O)(O)O)C(=O)C(C)(C)O4)n2)cc(OC)c1OC [Fostamatinib] (250 nM) please.
Given back: 96.1%

Asked: Tell me measured normalised response for CCCc1cc(C)[nH]c(=O)c1CNC(=O)c1cc(-c2ccnc(N3CCN(C)CC3)c2)cc2c1cnn2C(C)C [GSK343] (1000 nM) please.
Given back: 101%

Asked: Tell me measured normalised response for CO[C@H](C(=O)[C@@H](O)[C@@H](C)O)[C@@H]1Cc2cc3cc(O[C@H]4C[C@@H](O[C@@H]5C[C@@H](O)[C@H](O)[C@@H](C)O5)[C@H](O)[C@@H](C)O4)c(C)c(O)c3c(O)c2C(=O)[C@H]1O[C@H]1C[C@@H](O[C@@H]2C[C@@H](O)[C@@H](O[C@@H]3C[C@](C)(O)[C@H](O)[C@@H](C)O3)[C@@H](C)O2)[C@H](O)[C@@H](C)O1 [Plicamycin] (1000 nM) please.
Given back: 100%

Asked: Tell me measured normalised response for Cc1c(C(=O)Nc2ccc(N3C[C@@H](C)O[C@@H](C)C3)nc2)cccc1-c1ccc(OC(F)(F)F)cc1 [Erismodegib] (1 nM) please.
Given back: 97.8%
